Percent Effect values by entry
target: Polyketide synthase Pks13 (Mycobacterium tuberculosis (strain ATCC 25618 / H37Rv)); assay: Mycobacterium tuberculosis Polyketide synthase 13 Thioesterase (PKS13); type: functional; parameters: scale not given: in the data most compounds retested in dose-response had high values; conditions: 30 µM
The whole screen tested about 67,000 compounds, of which about 300 (0.45%) showed an effect of 50% or more. Shown is part of a subset that was picked to be rich in strong results.

| Compound | Percent Effect |
| --- | --- |
| CCN1CCN(C(=O)c2cnc3c(cnn3C3CCCC3)c2)CC1 | 2.83% |
| Cc1nn(C)cc1-c1ccnc(N(C)Cc2ccoc2)n1 | 139% |
| CN1CCN(C(=O)c2cnc3c(cnn3C3CCCC3)c2)CC1 | -58.3% |
| CNC(=O)CC1CC2(CCN(c3ncccn3)CC2)c2ccccc21 (stereo not drawn) | -25.9% |
| CO[C@@H]1CC[C@H]2[C@H]1OCCN2CC1CC1 | -4.52% |
| Cn1cncc1C(=O)N1C[C@@H]2CCN(c3cnccn3)C[C@@H]2C1 | -6.26% |
| COc1ccc(CN2CC[C@H]3CO[C@H](CNC(=O)N(C)C)[C@H]3C2)cc1 | -14.2% |
| COc1cccc(-c2noc(-c3ccc(NCC4CC4)nc3)n2)c1OC | 36.1% |
| COc1cccc(-c2noc(-c3ccc(NCCCO)nc3)n2)c1OC | 40.8% |
| NC(=O)c1cc(-n2cc(-c3cccc(C(=O)O)c3)cn2)cs1 | -18.4% |
| Cc1cc(CN2C[C@H]3CCC[C@@]3(COCC3CCOCC3)C2)no1 | -40.7% |
| O=C(c1cnc2c(cnn2C2CCCC2)c1)N1CCN(CCO)CC1 | 90.8% |
| COc1cccc(-c2noc(-c3ccc(NCC(C)O)nc3)n2)c1OC (stereo not drawn) | 30.5% |
| O=C1O[C@@H]2CN(Cc3cccc(O)c3)C[C@@H]2N1CCCN1CCOCC1 | -3.82% |
| O=C1CO[C@H]2CN(C3CCOCC3)C[C@H]2N1Cc1ccncc1 | -35.6% |
| COCCn1c2c(ccc1=O)CCN(Cc1ccoc1)CC2 | 19% |
| Cc1noc([C@]23COC[C@H]2CN(S(=O)(=O)C2CC2)C3)n1 | -31.1% |
| Cn1ccc(C(=O)N2C[C@@H]3CCN(c4cnccn4)C[C@@H]3C2)n1 | -2.86% |
| c1cnc(N2CCC3(CC2)CC(NCC2CC2)c2ccccc23)nc1 (stereo not drawn) | 2.19% |
| O=C(NC[C@]12COC[C@H]1CN(Cc1ccncc1)C2)c1ccno1 | -9.3% |
| c1cnc(NC[C@H]2OC[C@@H]3CCN(Cc4cccnc4)C[C@@H]32)nc1 | -692% |
| CNCCNc1ccc(-c2nc(-c3cccc(OC)c3OC)no2)cn1 | -36.1% |
| Cc1nn(C)cc1-c1ccnc(N(C)Cc2cnn(C)c2)n1 | -7.71% |

* * *

biological target: Polyketide synthase Pks13 (Mycobacterium tuberculosis (strain ATCC 25618 / H37Rv)) (UniProt I6X8D2); assay: Mycobacterium tuberculosis Polyketide synthase 13 Thioesterase (PKS13); assay type: functional; design: scale not given: in the data most compounds retested in dose-response had high values; conditions: 30 µM
Sequence (I6X8D2 whole entry): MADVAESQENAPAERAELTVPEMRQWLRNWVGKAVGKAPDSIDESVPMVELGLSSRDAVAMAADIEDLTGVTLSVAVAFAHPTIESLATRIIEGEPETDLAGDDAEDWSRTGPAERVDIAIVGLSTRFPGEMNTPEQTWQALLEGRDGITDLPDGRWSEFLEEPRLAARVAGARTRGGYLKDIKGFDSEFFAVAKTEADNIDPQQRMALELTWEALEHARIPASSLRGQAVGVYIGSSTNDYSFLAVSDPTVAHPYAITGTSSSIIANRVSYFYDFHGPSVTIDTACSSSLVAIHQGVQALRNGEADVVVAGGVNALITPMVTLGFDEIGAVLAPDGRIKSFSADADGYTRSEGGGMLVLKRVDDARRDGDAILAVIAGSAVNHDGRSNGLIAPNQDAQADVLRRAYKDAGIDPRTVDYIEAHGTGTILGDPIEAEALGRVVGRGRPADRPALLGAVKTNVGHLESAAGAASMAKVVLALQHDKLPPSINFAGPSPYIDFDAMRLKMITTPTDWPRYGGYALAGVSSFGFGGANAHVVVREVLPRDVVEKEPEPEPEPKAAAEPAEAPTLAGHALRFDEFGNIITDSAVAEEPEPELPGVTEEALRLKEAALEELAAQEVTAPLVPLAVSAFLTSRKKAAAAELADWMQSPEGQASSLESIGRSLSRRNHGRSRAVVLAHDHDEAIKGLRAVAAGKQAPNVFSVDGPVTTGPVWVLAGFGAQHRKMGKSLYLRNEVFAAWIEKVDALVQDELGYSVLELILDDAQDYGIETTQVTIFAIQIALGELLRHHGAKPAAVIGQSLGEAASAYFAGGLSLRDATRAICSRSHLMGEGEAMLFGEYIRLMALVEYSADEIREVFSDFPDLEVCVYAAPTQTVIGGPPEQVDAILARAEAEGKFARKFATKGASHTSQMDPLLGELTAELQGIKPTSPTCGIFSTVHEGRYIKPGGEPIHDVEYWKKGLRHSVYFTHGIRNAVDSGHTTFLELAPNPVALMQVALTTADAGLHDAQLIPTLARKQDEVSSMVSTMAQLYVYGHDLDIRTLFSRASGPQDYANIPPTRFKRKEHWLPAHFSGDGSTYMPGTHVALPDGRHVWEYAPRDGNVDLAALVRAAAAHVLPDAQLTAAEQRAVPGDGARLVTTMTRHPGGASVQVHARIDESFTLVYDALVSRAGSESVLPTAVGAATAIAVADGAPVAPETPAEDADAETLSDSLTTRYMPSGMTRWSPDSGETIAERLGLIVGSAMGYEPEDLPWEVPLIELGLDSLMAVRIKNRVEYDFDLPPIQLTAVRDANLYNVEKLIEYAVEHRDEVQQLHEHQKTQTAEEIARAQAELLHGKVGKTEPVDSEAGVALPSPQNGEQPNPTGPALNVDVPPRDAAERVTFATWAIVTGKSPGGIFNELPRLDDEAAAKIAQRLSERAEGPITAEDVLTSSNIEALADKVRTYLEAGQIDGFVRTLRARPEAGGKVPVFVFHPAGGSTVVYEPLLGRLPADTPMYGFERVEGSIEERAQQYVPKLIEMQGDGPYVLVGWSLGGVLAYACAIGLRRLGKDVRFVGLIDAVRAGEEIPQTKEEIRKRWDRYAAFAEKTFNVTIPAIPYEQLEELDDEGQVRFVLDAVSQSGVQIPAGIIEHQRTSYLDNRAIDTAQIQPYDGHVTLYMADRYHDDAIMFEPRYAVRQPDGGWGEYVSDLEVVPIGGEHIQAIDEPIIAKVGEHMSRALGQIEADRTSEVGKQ
The whole screen tested about 67,000 compounds, of which about 300 (0.45%) showed an effect of 50% or more. Many of the other results were omitted from the sample, so strong results are more common in it than they were.
Measurement label: Percent Effect (%)

| Compound | Measurement label | Reported measurement |
| --- | --- | --- |
| CNC(=O)N1CCc2cc(C(=O)N(C)C)c(NCC3CC3)nc2CC1 | Percent Effect | 4.02 |
| Cc1ncc(CNCC(C)O)c2cc(C(=O)c3ccc(Br)cc3)oc12 (stereo unspecified) | Percent Effect | 53.8 |
| CCc1n[nH]c(C2CN(C(=O)c3nc(C)n4ccccc34)CCO2)n1 (stereo unspecified) | Percent Effect | 83 |
| CCc1n[nH]c(C2CN(C(=O)c3ncoc3CC)CCO2)n1 (stereo unspecified) | Percent Effect | -48.2 |
| CCc1nc(C2CCCN2C(=O)c2nc(C)n3ccccc23)no1 (stereo unspecified) | Percent Effect | 75.3 |
| c1ccc2c(c1)C(NC1CCCC1)CC21CCNCC1 (stereo unspecified) | Percent Effect | -6.43 |
| COc1cccc(C(O)CN2CCN(c3cccc(C)c3)CC2)c1 (stereo unspecified) | Percent Effect | 0.857 |
| Cc1nc(C)n(C2CCCN(C(=O)c3cc4ccccc4n3C)C2)n1 (stereo unspecified) | Percent Effect | -20.9 |
| CCc1nc(C2CCCN2C(=O)c2nccnc2N)no1 (stereo unspecified) | Percent Effect | 29.6 |
| CCC1=N[C@@]2(CC[C@@H]3CN(S(=O)(=O)CC)C[C@@H]32)C(=O)N1CCOC | Percent Effect | -31.3 |
| Cc1nc(C)n(C2CCCN(C(=O)c3nc(C)n4ccccc34)C2)n1 (stereo unspecified) | Percent Effect | 93.6 |

Reference source: ChEMBL document CHEMBL3988442
